Assay: yeast display, Sf9 membrane polyspecificity reagent, FACS + sequencing; frameworks hold sequencing errors
endpoint.name: polyreactivity (PSR sort gate)

>  <monomer.sequence>
QDQLVESGRGLVQAGGSLRLSCAASASIFTKYTMVWYRQAPGKERELVAAITLRGTSTYYADSVKGRFTISRDNAKKTVYLQKNSLKPEDTAVYYCNILYSWVVAYDYWGQGTQVTLSS

>  <polyreactivity (PSR sort gate)>
high polyreactivity

$$$$
>  <monomer.sequence>
QVQLVESGGGLVQAGGSLRLSCAASGNTFWDNAMGWYRQAPGKERELVAAIRWSTASTHYADSVKGRFTISRDNAKNTVYFPMNSLKPEDTAVYYCAATDYYYYRDKYYGYDNWGQGTQVTVSS

>  <polyreactivity (PSR sort gate)>
low polyreactivity

$$$$
>  <monomer.sequence>
QVQLVESGRGLVQAGVSLRLSCAASGFIFKGYAMGWYRQATGKERELVAAITWSGRTYYADSVKGRFTISRDNAKNTVYLKMNSLKPEDTAVFYCAVDRGRGSTYKYDYWGQGTQVNVSS

>  <polyreactivity (PSR sort gate)>
low polyreactivity

$$$$
>  <monomer.sequence>
QVQLVESGGGLVQAGGSLRLSCAASGRIFPYYVMGWYRQAPGKERELVAAISRSGSSTYYADSVKGRFTITRDNAKNTVYLQMNSLKPEDTAVYYCAADYNWSPYYTRGDYWGQGTQVTVSS

>  <polyreactivity (PSR sort gate)>
high polyreactivity

$$$$

Challenge: Report polyreactivity (PSR sort gate), nothing else, for this sequence: QVQLEESGGGLVQAGGSLRLSCAASGYTFESYPMGWYRQAPGKEREFVAVISSSDTSTSYADSVKGRFTISRDNAKNTVYLQMNSLNPEDTAVYYCAAYSSPYYITYYWYNYDYWGQGTQVTVSS
Response given: low polyreactivity
